// data source = the Human Domainome abundance scans (Beltran et al. 2025)

B1: Far upstream element-binding protein 1, residues 184 to 257; numbered along this chain, Q96AE4 (parent)
chain: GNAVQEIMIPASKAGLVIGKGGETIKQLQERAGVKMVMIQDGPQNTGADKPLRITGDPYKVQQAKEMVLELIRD

Variants of: B1
Test: abundance fitness (aPCA) (normalised: wild type 0, dead -1); higher = more abundant; growth selection in yeast, the domain comes from the species named
Details: Homo sapiens
Using abundance fitness as the sorting value, the categories are one (below -0.1), two (-0.1 to below -0.04), three (-0.04 or more)

[[record]]
change = "M38V"
class_assignment = "three"

[[record]]
change = "K50G"
class_assignment = "one"

[[record]]
change = "K65T"
class_assignment = "two"

[[record]]
change = "E66L"
class_assignment = "two"

[[record]]
change = "G15L"
class_assignment = "three"

[[record]]
change = "L28F"
class_assignment = "one"

[[record]]
change = "G47Q"
class_assignment = "three"

[[record]]
change = "G15C"
class_assignment = "three"

[[record]]
change = "L69P"
class_assignment = "one"

[[record]]
change = "M67R"
class_assignment = "two"

[[record]]
change = "L16C"
class_assignment = "one"

[[record]]
change = "V34A"
class_assignment = "one"

[[record]]
change = "L28R"
class_assignment = "one"

[[record]]
change = "K60G"
class_assignment = "two"

[[record]]
change = "G33L"
class_assignment = "one"

[[record]]
change = "Q62A"
class_assignment = "three"

[[record]]
change = "R53G"
class_assignment = "one"

[[record]]
change = "K20S"
class_assignment = "two"

[[record]]
change = "Q62V"
class_assignment = "two"

[[record]]
change = "Q44R"
class_assignment = "two"

[[record]]
change = "K60N"
class_assignment = "three"

[[record]]
change = "A32N"
class_assignment = "three"

